STUDY SYSTEM: T1, human TNFR2 on the cell surface (CHO-TNFR2 cells; human Treg cells) (human, UniProt P20333 23-461)
T1 construct: whole, on cells; The assay field of each row says which cells; also called TNFR2-CHO cell; TNFR2 on Treg cells
T1 sequence (looked up): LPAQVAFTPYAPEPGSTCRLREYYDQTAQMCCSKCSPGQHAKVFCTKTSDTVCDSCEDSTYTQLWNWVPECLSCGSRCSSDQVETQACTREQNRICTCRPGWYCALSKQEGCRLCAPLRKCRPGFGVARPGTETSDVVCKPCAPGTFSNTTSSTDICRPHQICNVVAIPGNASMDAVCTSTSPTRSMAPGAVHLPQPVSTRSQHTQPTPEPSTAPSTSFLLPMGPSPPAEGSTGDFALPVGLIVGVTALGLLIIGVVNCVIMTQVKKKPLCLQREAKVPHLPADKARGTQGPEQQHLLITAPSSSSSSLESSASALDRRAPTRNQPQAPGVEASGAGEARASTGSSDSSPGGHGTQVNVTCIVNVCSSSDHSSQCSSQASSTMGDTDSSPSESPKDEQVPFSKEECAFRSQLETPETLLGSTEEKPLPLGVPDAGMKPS
ASSAY EXPLANATION: flow cytometry, blocking of TNFα-biotin on CHO-TNFR2 cells
Measured Antibody AUC, listed per entry for reference.
MEASUREMENT KIND: Antibody AUC

- BINDER: "TNFR2 antibody #001 (antibody, V domains shown, also called antibody #1) VH: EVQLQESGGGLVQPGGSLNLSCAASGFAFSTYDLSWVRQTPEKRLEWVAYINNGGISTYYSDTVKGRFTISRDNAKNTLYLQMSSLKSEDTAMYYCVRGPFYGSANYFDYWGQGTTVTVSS VL: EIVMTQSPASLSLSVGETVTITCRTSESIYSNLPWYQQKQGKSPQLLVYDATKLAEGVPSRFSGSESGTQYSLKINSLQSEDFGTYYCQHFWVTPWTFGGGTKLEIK"
  MEASUREMENT KIND: "Antibody AUC"
  EXPERIMENTAL VALUE: 34300
- BINDER: "TNFR2 antibody #088 (antibody, V domains shown) VH: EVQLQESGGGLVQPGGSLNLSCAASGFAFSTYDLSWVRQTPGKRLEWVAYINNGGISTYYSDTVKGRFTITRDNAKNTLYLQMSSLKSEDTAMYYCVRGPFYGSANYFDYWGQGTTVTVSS VL: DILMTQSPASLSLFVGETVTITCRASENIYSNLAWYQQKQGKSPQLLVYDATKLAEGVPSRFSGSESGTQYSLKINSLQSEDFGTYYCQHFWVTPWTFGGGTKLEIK"
  MEASUREMENT KIND: "Antibody AUC"
  EXPERIMENTAL VALUE: 24300
- BINDER: "TNFR2 antibody #226 (antibody, V domains shown) VH: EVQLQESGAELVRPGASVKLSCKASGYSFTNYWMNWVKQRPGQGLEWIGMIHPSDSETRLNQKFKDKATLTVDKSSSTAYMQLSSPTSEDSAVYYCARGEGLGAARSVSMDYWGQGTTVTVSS VL: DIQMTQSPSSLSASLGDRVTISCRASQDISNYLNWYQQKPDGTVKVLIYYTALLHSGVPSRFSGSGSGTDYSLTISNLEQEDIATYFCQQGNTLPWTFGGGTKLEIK"
  MEASUREMENT KIND: "Antibody AUC"
  EXPERIMENTAL VALUE: 18600
- BINDER: "TNFR2 antibody #125 (antibody, V domains shown) VH: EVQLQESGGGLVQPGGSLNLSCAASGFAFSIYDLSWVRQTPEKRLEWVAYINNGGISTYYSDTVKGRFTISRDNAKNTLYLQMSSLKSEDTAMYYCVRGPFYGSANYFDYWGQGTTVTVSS VL: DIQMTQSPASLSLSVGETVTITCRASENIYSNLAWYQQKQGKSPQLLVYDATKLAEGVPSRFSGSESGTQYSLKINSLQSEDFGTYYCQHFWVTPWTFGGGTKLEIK"
  MEASUREMENT KIND: "Antibody AUC"
  EXPERIMENTAL VALUE: 37000
- BINDER: "TNFR2 antibody #395 (antibody, V domains shown) VH: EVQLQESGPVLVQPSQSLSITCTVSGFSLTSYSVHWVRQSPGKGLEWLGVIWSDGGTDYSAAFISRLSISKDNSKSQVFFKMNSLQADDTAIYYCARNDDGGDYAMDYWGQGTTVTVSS VL: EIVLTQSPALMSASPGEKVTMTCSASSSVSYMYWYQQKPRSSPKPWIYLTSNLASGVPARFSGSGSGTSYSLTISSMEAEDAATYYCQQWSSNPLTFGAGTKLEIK"
  MEASUREMENT KIND: "Antibody AUC"
  EXPERIMENTAL VALUE: 14900
- BINDER: "TNFR2 antibody #352 (antibody, V domains shown) VH: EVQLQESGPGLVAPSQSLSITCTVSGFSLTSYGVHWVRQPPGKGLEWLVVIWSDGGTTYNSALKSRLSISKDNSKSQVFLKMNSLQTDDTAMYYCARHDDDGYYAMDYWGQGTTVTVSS VL: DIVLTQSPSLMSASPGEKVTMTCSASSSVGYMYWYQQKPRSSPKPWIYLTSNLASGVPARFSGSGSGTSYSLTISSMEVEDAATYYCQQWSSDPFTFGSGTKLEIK"
  MEASUREMENT KIND: "Antibody AUC"
  EXPERIMENTAL VALUE: 10700
- BINDER: "TNFR2 antibody #365 (antibody, V domains shown) VH: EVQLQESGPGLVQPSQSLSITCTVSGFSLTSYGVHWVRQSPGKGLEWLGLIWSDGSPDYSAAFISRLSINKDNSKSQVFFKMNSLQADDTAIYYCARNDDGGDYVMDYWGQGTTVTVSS VL: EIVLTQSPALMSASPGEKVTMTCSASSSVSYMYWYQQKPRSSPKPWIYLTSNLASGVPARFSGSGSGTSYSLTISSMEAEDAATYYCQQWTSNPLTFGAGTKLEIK"
  MEASUREMENT KIND: "Antibody AUC"
  EXPERIMENTAL VALUE: 10600

All figures here come from patent US20220017630A1.
